Let's look at some molecules and their measured half-life.
assay: Half life in […] by LC/MS and RP-HPLC method; type: ADME, cell-free, Serum; conditions: human
Bridge positions count the residues as written; N and C are the ends. Peptide text beside a SMILES is read from it.

MOLECULE	REL	half-life (h)
CC[C@H](C)[C@@H]1NC(=O)[C@H](Cc2ccc(O)cc2)NC(=O)[C@@H]2CSSC[C@H](NC(=O)[C@H](CC(N)=O)NC(=O)[C@H](CCC(N)=O)NC1=O)C(=O)N1CCC[C@H]1C(=O)N[C@@H](CC(C)C)C(=O)NCC(=O)N[C@@H](C)C(=O)NCC(=O)N[C@@H](C)C(=O)NCC(=O)N[C@@H](C)C(=O)NCC(=O)N2 (cyclo(AGAGAGCYIQNCPLG); disulfide 7-12)	>	48
CC[C@H](C)[C@@H]1NC(=O)[C@H](Cc2ccc(O)cc2)NC(=O)[C@@H](N)C[Te][Te]C[C@@H](C(=O)N2CCC[C@H]2C(=O)N[C@@H](CC(C)C)NCC(N)=O)NC(=O)[C@H](CC(N)=O)NC(=O)[C@H](CCC(N)=O)NC1=O	=	24.2

###

experiment: Half life in […] by LC/MS and RP-HPLC method; assay type: ADME, cell-free, Serum; conditions: human

MOLECULE	REL	half-life (h)
CC[C@H](C)[C@@H]1NC(=O)[C@H](Cc2ccc(O)cc2)NC(=O)[C@@H](N)CSSC[C@@H](C(=O)N2CCC[C@H]2C(=O)N[C@@H](CC(C)C)C(=O)NCC(N)=O)NC(=O)[C@H](CC(N)=O)NC(=O)[C@H](CCC(N)=O)NC1=O [OXYTOCIN]	=	11.6
CC[C@@H](C)[C@H]1NC(=O)[C@@H](CCC(N)=O)NC(=O)[C@@H](CC(N)=O)NC(=O)[C@H](NC(=O)[C@H]2CCCN2C(=O)[C@@H](CC(C)C)NC(=O)CN)CSSC[C@H](C(=O)O)NC(=O)[C@@H](Cc2ccc(O)cc2)NC1=O	=	5.5
CC[C@H](C)[C@@H]1NC(=O)[C@H](Cc2ccc(O)cc2)NC(=O)[C@@H]2CSSC[C@H](NC(=O)[C@H](CC(N)=O)NC(=O)[C@H](CCC(N)=O)NC1=O)C(=O)N1CCC[C@H]1C(=O)N[C@@H](CC(C)C)C(=O)NCC(=O)N2	>	48
NC(=O)CC[C@@H]1NC(=O)[C@H](Cc2ccccc2)NC(=O)[C@H](Cc2ccc(O)cc2)NC(=O)[C@@H](N)CSSC[C@@H](C(=O)N2CCC[C@H]2C(=O)N[C@@H](CCCN=C(N)N)C(=O)NCC(N)=O)NC(=O)[C@H](CC(N)=O)NC1=O [VASOPRESSIN]	=	1.7

###

Let's look at some compounds and their measured pEC50.
biological target: Oxytocin receptor (Homo sapiens, UniProt P30559); assay: Activity at oxytocin receptor expressed in COS1 cells assessed as IP-one generation by HTRF assay
Sequence (P30559 whole entry): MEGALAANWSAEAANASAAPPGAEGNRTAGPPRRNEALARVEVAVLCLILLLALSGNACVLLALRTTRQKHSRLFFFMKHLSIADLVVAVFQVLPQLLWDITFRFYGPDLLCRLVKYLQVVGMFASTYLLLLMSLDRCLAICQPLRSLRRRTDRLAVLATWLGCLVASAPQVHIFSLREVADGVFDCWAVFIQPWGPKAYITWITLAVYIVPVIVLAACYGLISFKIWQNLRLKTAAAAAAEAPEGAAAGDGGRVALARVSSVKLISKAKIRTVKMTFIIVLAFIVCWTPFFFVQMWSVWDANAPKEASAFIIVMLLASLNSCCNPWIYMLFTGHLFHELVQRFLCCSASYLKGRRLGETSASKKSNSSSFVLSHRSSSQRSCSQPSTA
pEC50: −log10 of the molar value. Bridge positions count the residues as written; N and C are the ends. Peptide text beside a SMILES is read from it.

COMPOUND	REL	pEC50
CC[C@H](C)[C@@H]1NC(=O)[C@H](Cc2ccc(O)cc2)NC(=O)[C@@H]2CSSC[C@H](NC(=O)[C@H](CC(N)=O)NC(=O)[C@H](CCC(N)=O)NC1=O)C(=O)N1CCC[C@H]1C(=O)N[C@@H](CC(C)C)C(=O)NCC(=O)N[C@@H](C)C(=O)NCC(=O)N[C@@H](C)C(=O)NCC(=O)N[C@@H](C)C(=O)NCC(=O)N2 (cyclo(AGAGAGCYIQNCPLG); disulfide 7-12)	<	4.00
CC[C@H](C)[C@@H]1NC(=O)[C@H](Cc2ccc(O)cc2)NC(=O)[C@@H](N)CS[Se]C[C@@H](C(=O)N2CCC[C@H]2C(=O)N[C@@H](CC(C)C)NCC(N)=O)NC(=O)[C@H](CC(N)=O)NC(=O)[C@H](CCC(N)=O)NC1=O	=	6.81
CC[C@@H](C)[C@H]1NC(=O)[C@@H](CCC(N)=O)NC(=O)[C@@H](CC(N)=O)NC(=O)[C@H](NC(=O)[C@H]2CCCN2C(=O)[C@@H](CC(C)C)NC(=O)CN)CSSC[C@H](C(=O)O)NC(=O)[C@@H](Cc2ccc(O)cc2)NC1=O	<	4.00
CC[C@H](C)[C@@H]1NC(=O)[C@H](Cc2ccc(O)cc2)NC(=O)[C@@H]2CSSC[C@H](NC(=O)[C@H](CC(N)=O)NC(=O)[C@H](CCC(N)=O)NC1=O)C(=O)N1CCC[C@H]1C(=O)N[C@@H](CC(C)C)C(=O)NCC(=O)N2	<	4.00
CC[C@H](C)[C@@H]1NC(=O)[C@H](Cc2ccc(O)cc2)NC(=O)[C@@H](N)C[Te][Te]C[C@@H](C(=O)N2CCC[C@H]2C(=O)N[C@@H](CC(C)C)NCC(N)=O)NC(=O)[C@H](CC(N)=O)NC(=O)[C@H](CCC(N)=O)NC1=O	=	7.56
